# Assay: Ratio of drug level in brain to plasma in po dosed rat
# Format: ADME, organism-based
Assay Readout: Kp

Structure | Readout Number
CN(C)c1nc(N[C@H]2CC[C@@H](NC(=O)c3ccc(F)c(F)c3)CC2)nc2ccccc12 | 0.5

---

# Assay: Drug level in Sprague-Dawley rat brain at 10 mg/kg, po after 2 hrs
# Format: ADME, organism-based
# Parameters: dose 10 mg/kg, route oral
Assay Readout: concentration at 2 h (ng/g)

Structure | Assay Readout | Readout Number
CN(C)c1nc(N[C@H]2CC[C@@H](NC(=O)c3ccc(F)c(F)c3)CC2)nc2ccccc12 | concentration at 2 h | 55
Cc1cnc(N[C@H]2CC[C@@H](CNC(=O)c3cc(C(F)(F)F)cc(C(F)(F)F)c3)CC2)nc1N(C)C | concentration at 2 h | 9

---

# Assay: Plasma concentration in Sprague-Dawley rat at 10 mg/kg, po after 2 hrs
# Type: ADME, organism-based
# Parameters: dose 10 mg/kg, route oral

Structure | Measurement Unit | concentration at 2 h
Cc1cnc(N[C@H]2CC[C@@H](CNC(=O)c3cc(C(F)(F)F)cc(C(F)(F)F)c3)CC2)nc1N(C)C | ng/mL | 50
CN(C)c1nc(N[C@H]2CC[C@@H](NC(=O)c3ccc(F)c(F)c3)CC2)nc2ccccc12 | ng/mL | 109

---

# Tgt: 5-hydroxytryptamine receptor 2B (Homo sapiens)
# Sequence (P41595 whole entry): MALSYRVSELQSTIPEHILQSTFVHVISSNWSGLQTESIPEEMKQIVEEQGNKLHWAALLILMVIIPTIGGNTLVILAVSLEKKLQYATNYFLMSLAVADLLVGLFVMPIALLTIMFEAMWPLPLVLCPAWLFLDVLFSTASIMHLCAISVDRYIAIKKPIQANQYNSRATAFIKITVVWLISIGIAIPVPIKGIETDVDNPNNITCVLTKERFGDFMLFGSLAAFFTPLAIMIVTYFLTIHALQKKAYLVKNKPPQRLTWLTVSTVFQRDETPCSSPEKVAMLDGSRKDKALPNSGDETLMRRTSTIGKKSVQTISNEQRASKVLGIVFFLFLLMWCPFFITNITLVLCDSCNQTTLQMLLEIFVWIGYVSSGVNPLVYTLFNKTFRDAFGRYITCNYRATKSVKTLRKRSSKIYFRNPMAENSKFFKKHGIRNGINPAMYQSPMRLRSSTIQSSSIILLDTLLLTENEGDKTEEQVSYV
# Assay: Displacement of [3H]rauwolsine from human 5HT2B receptor
# label = Met if IC50 < 300 nM else Not met

Structure | Category Label
Cc1cc(N(C)C)nc(N[C@H]2CC[C@@H](NC(=O)c3cc(C(F)(F)F)cc(C(F)(F)F)c3)CC2)n1 | Not met
Cc1cnc(N[C@H]2CC[C@@H](CNC(=O)c3ccc(F)c(F)c3)CC2)nc1N(C)C | Not met
Cc1ccc(C(=O)N[C@H]2CC[C@@H](Nc3ncc(C)c(N(C)C)n3)CC2)cc1 | Met
Cc1cnc(N[C@H]2CC[C@@H](CNC(=O)c3cc(C(F)(F)F)cc(C(F)(F)F)c3)CC2)nc1N(C)C | Not met
CN(C)c1nc(N[C@H]2CC[C@@H](NC(=O)c3ccc(F)c(F)c3)CC2)nc2ccccc12 | Met
Cc1cccc(C(=O)N[C@H]2CC[C@@H](Nc3ncc(C)c(N(C)C)n3)CC2)c1 | Met
Cc1cc(N(C)C)nc(N[C@H]2CC[C@@H](NC(=O)c3ccc(Cl)c(Cl)c3)CC2)n1 | Met
Cc1cc(N(C)C)nc(N[C@H]2CC[C@@H](NC(=O)c3ccc(Cl)cc3)CC2)n1 | Met

---

# Tgt: Alpha-1A adrenergic receptor (Homo sapiens, UniProt P35348)
# Sequence (P35348 whole entry): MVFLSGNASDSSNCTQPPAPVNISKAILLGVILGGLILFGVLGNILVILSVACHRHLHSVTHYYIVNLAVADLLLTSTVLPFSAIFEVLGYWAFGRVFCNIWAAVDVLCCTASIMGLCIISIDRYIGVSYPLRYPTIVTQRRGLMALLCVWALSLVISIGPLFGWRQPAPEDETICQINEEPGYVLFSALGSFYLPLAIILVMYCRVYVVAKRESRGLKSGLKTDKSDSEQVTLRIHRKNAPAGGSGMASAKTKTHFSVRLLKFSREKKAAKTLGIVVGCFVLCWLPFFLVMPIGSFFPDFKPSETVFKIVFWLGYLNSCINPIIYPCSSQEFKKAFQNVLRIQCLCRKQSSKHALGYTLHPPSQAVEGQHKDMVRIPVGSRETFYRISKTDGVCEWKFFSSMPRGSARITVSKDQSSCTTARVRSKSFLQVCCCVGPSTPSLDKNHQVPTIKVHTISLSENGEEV

Structure | IC50 [µM]
Cc1cc(N(C)C)nc(N[C@H]2CC[C@@H](NC(=O)c3ccc(Cl)cc3)CC2)n1 | 3

---

# Tgt: UniProtKB P41595
# Assay: Displacement of [125I]LSD from human 5HT2B receptor

Structure | Measurement Unit | IC50
CN(C)c1nc(N[C@H]2CC[C@@H](NC(=O)c3ccc(F)c(F)c3)CC2)nc2ccccc12 | nM | 9.66

---

# Tgt: Melanin-concentrating hormone receptor 1 (Homo sapiens, UniProt Q99705)
# Sequence (Q99705 whole entry, looked up): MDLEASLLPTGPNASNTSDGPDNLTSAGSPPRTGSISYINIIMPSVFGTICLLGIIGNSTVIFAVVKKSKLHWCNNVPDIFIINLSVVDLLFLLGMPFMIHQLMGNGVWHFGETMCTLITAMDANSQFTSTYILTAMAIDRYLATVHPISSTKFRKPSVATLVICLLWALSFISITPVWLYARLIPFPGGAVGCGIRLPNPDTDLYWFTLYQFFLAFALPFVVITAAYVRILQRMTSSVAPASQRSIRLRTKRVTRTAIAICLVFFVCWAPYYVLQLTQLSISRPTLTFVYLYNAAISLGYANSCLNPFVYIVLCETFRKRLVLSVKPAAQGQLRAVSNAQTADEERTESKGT
# Assay: Antagonist activity at CART form of human MCH1 receptor expressed in HEK293 cells coexpressing Galphaq assessed as inhibition of MCH-induced intracellular calcium level by FLIPR assay
# Assay type: functional, cell-based
Labelling: IC50 reported below 0.03 µM becomes condition met; at or above becomes condition not met.

Molecule | Category Label
Cc1cc(N(C)C)nc(N[C@H]2CC[C@@H](NC(=O)c3ccc(OC(F)(F)F)cc3)CC2)n1 | condition not met
Cc1cc(N(C)C)nc(N[C@H]2CC[C@@H](NC(=O)c3cccc(Cl)c3)CC2)n1 | condition met
Cc1cnc(N[C@H]2CC[C@@H](NC(=O)c3ccc(F)cc3)CC2)nc1N(C)C | condition met
CCc1cnc(N[C@H]2CC[C@@H](NC(=O)c3ccc(F)c(F)c3)CC2)nc1N(C)C | condition not met
Cc1cccc(C(=O)N[C@H]2CC[C@@H](Nc3ncc(C)c(N(C)C)n3)CC2)c1 | condition met
Cc1cnc(N[C@H]2CC[C@@H](CNC(=O)c3cc(C(F)(F)F)cc(C(F)(F)F)c3)CC2)nc1N(C)C | condition met
Cc1cnc(N[C@H]2CC[C@@H](NC(=O)c3ccc(Cl)cc3)CC2)nc1N(C)C | condition met
Cc1cc(N(C)C)nc(N[C@H]2CC[C@@H](NC(=O)c3ccc(F)c(F)c3)CC2)n1 | condition met
Cc1cnc(N[C@H]2CC[C@@H](NC(=O)c3ccc(F)c(F)c3)CC2)nc1N(C)C | condition met
Cc1cc(N(C)C)nc(N[C@H]2CC[C@@H](CNC(=O)c3cc(Cl)cc(Cl)c3)CC2)n1 | condition not met
Cc1nc(N[C@H]2CC[C@@H](NC(=O)c3ccc(F)c(F)c3)CC2)nc(N(C)C)c1C | condition met
Cc1cc(N(C)C)nc(N[C@H]2CC[C@@H](NC(=O)c3ccc(Cl)cc3)CC2)n1 | condition met
Cc1cc(N(C)C)nc(N[C@H]2CC[C@@H](CNC(=O)c3ccc(F)c(F)c3)CC2)n1 | condition not met
CN(C)CC1CCc2cc(NC(=O)c3ccc(-c4ccc(F)cc4)cc3)ccc2C1 (stereo unspecified) | condition met
Cc1cc(N(C)C)nc(N[C@H]2CC[C@@H](NC(=O)c3ccc(F)cc3)CC2)n1 | condition met
CCN(C)c1nc(N[C@H]2CC[C@@H](NC(=O)c3ccc(F)c(F)c3)CC2)ncc1C | condition not met
Cc1cnc(N[C@H]2CC[C@@H](CNC(=O)c3ccc(F)c(F)c3)CC2)nc1N(C)C | condition not met
CNc1nc(N[C@H]2CC[C@@H](CNC(=O)c3cc(C(F)(F)F)cc(C(F)(F)F)c3)CC2)ncc1C | condition not met
Cc1cnc(N[C@H]2CC[C@@H](CNC(=O)c3cc(C(F)(F)F)cc(C(F)(F)F)c3)CC2)nc1N | condition not met
Cc1cc(N(C)C)nc(N[C@H]2CC[C@@H](NC(=O)c3cc(C(F)(F)F)cc(C(F)(F)F)c3)CC2)n1 | condition met
Cc1cc(N(C)C)nc(N[C@H]2CC[C@@H](NC(=O)c3ccc(Cl)c(Cl)c3)CC2)n1 | condition met

Cited source: ChEMBL document CHEMBL1156067
